Where do these numbers come from? They come from PubChem BioAssay AID652153.

TARGET_OF_ASSAY: UniProt Q9H0H5
Sequence (Q9H0H5 whole entry, looked up): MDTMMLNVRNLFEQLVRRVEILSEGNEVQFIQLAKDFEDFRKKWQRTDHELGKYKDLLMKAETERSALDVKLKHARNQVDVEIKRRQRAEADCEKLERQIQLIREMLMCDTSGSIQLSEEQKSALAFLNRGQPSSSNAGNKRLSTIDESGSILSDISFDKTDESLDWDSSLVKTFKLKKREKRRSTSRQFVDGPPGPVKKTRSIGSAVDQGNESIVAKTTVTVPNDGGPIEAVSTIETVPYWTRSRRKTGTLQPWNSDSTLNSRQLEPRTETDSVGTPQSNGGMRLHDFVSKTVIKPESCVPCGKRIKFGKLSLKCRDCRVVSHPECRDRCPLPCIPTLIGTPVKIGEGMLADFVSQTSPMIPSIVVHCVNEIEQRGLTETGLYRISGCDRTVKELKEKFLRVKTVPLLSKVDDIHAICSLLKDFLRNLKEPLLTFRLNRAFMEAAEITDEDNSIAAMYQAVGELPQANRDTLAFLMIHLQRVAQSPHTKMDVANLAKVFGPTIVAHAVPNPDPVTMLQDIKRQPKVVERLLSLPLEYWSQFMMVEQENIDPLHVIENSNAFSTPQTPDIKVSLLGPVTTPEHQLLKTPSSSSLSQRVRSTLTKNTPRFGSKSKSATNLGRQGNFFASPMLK
MEASUREMENT_PROTOCOL: MgcRacGAP inhibitors, selectivity among RhoGAPs, dose response, selectivity assay, biochemical (AID 652153)
EXPERIMENTAL_SETUP: MgcRacGAP GAP activity on Rac1F28L, Biomol green phosphate
The source made the active and inactive calls. No rule for the calls is given here.
Classes used: active, inactive

MOLECULE: CSc1nc(N)c(N=Nc2ccc([As](=O)(O)O)cc2)c(=O)[nH]1
LABEL_CLASS: inactive
//
MOLECULE: O=C(O)c1cccc(-n2sc3ccccc3c2=O)c1
LABEL_CLASS: inactive
//
MOLECULE: Cc1cc(N)c2cc(NC(=O)/C=C/c3ccccc3Cl)ccc2n1
LABEL_CLASS: inactive
//
MOLECULE: O=c1c2sc3ccccc3c2[nH]c(=S)n1CCN1CCOCC1
LABEL_CLASS: inactive
//
MOLECULE: O=c1c2ccccc2sn1-c1cccc(Cl)c1
LABEL_CLASS: active
//
MOLECULE: Cc1ccc(-n2sc3cc(F)ccc3c2=O)c(C)c1
LABEL_CLASS: inactive
//
MOLECULE: CC(=O)Nc1ccc2sn(-c3ccccc3)c(=O)c2c1
LABEL_CLASS: active
//
MOLECULE: C[n+]1c(-c2ccc(C=NNC(=O)c3ccc(C(=O)NN=Cc4ccc(-c5cn6ccccc6[n+]5C)cc4)cc3)cc2)cn2ccccc21
LABEL_CLASS: inactive
//
MOLECULE: O=C(O)c1cc(N2C(=O)C=CC2=O)cc(N2C(=O)C=CC2=O)c1
LABEL_CLASS: inactive
//
MOLECULE: CCN(CC)c1ccc(C(=C2C=CC(=[N+](CC)CC)C=C2)c2ccc(N(CC)CC)cc2)cc1
LABEL_CLASS: inactive
//
MOLECULE: O=c1c2ccc(F)cc2sn1-c1ccccc1
LABEL_CLASS: inactive
//
MOLECULE: O=C(O)c1cc(N2N=C(C(F)(F)F)/C(=C/C=C/c3ccco3)C2=O)ccc1Cl
LABEL_CLASS: inactive
//
MOLECULE: COc1ccc(NC2CCCN(C(=O)C3(C)CCCCC3)C2)cc1 (stereo unspecified)
LABEL_CLASS: inactive
//
MOLECULE: Cc1cc(C)c2c(=N)c3ccccc3n(CCCCCCCCn3c4ccccc4c(=N)c4c(C)cc(C)nc43)c2n1
LABEL_CLASS: inactive
//
MOLECULE: CC1OC(CC(=O)O)CC2=C1C(=O)c1c(O)cccc1C2=O (stereo unspecified)
LABEL_CLASS: inactive
//
MOLECULE: COC(=O)c1cccc(-n2sc3ccccc3c2=O)c1
LABEL_CLASS: inactive
//
MOLECULE: Nc1n[nH]c(=S)n1/N=C1/C(=O)Nc2ccccc21
LABEL_CLASS: inactive
//
MOLECULE: O=C1NC(=S)N(c2ccccc2)C(=O)/C1=C/c1ccco1
LABEL_CLASS: inactive
//
MOLECULE: O=c1c2ccccc2sn1-c1ccc(Cl)cc1
LABEL_CLASS: inactive
//
MOLECULE: O=C1C=CC(=O)c2c(O)c(N3CCN(CCO)CC3)c(Cl)c(O)c21
LABEL_CLASS: inactive
//
MOLECULE: COc1ccc(/C=N/Nc2cc(C)nc3ccc(OC)cc23)c(OC)c1
LABEL_CLASS: inactive
//
MOLECULE: CN(C)c1ccc(C=c2c3cc(O)ccc3n3c2cc(-c2ccccc2)[n+]3C)cc1
LABEL_CLASS: inactive
//
MOLECULE: O=C1C(SCCO)=C(SCCO)C(=O)c2ccccc21
LABEL_CLASS: inactive
//
MOLECULE: CN(C)c1ccc(/C=C/c2cc[n+](C)c3ccccc23)cc1
LABEL_CLASS: inactive
//
MOLECULE: O=c1c2ccccc2sn1-c1ccc(F)cc1
LABEL_CLASS: inactive
//
MOLECULE: O=C1C=CC(=O)N1c1ccccc1N1C(=O)C=CC1=O
LABEL_CLASS: inactive
//
MOLECULE: COc1ccc(-n2sc3ccccc3c2=O)cc1
LABEL_CLASS: inactive
//
MOLECULE: O=C(O)C1CSC(c2ccco2)N1 (stereo unspecified)
LABEL_CLASS: inactive
//
MOLECULE: Nc1ccc(OCc2ccco2)cc1
LABEL_CLASS: inactive
//
MOLECULE: CN(C)c1ncc(C2=C(Cl)C(=O)C(N3CCCC3)=C(Cl)C2=O)s1
LABEL_CLASS: inactive
//
MOLECULE: Cc1c(Cl)sn(-c2ccc(Cl)cc2)c1=O
LABEL_CLASS: inactive
//
MOLECULE: O=c1c2ccccc2sn1-c1ccc(Cl)cc1Cl
LABEL_CLASS: inactive
//
MOLECULE: O=C1C(Cl)=C(NC(=O)c2ccccc2)C(=O)C(Cl)=C1NC(=O)c1ccccc1
LABEL_CLASS: inactive
//
MOLECULE: Cc1ccc(C)c(-n2sc3ccc(F)cc3c2=O)c1
LABEL_CLASS: inactive
//
MOLECULE: CCN1CCN(Cc2ccc(NC(=O)c3ccc(C)c(/C=C/c4cnc(Nc5cc(N6CCNCC6)nc(C)n5)cn4)c3)cc2C(F)(F)F)CC1
LABEL_CLASS: inactive
//
MOLECULE: COc1ccc(Nc2ccc3ccccc3c2)cc1
LABEL_CLASS: inactive
//
MOLECULE: O=C1C=CC(=O)c2c(O)c(N3CCN(CCOCCO)CC3)c(Br)c(O)c21
LABEL_CLASS: inactive
//
MOLECULE: COc1ccc(-n2sc3ccc(F)cc3c2=O)cc1
LABEL_CLASS: inactive
//
MOLECULE: O=c1c2ccccc2sn1-c1ccccc1F
LABEL_CLASS: inactive
//
MOLECULE: CN(C)c1nc(=NCc2cccs2)ss1
LABEL_CLASS: inactive
//
MOLECULE: CC1=NNC(=O)C1Br (stereo unspecified)
LABEL_CLASS: inactive
//
MOLECULE: O=C(Nc1ccccc1Cl)/C(Cl)=C(\Cl)S(=O)c1ccccc1 (stereo unspecified)
LABEL_CLASS: inactive
//
MOLECULE: Cn1ccc(=Nc2ccc(NC(=O)c3ccc(N=c4ccn(C)c5ccc([N+](=O)[O-])cc45)cc3)cc2)cc1
LABEL_CLASS: active
//
MOLECULE: O=C1C(=Cc2ccco2)CCC1=Cc1ccco1
LABEL_CLASS: inactive
//
MOLECULE: O=c1c2cc(F)ccc2sn1-c1ccccc1Cl
LABEL_CLASS: active
//
MOLECULE: O=c1c2cc(F)ccc2sn1-c1ccccc1
LABEL_CLASS: inactive
